Could you please report measured % Inhibition (N = 2) of VEGF-C-mediated KDR activity, antibody 100 nM for the items listed next?
biological target: human KDR on cells (human, UniProt P35968 20-1356); experiment: cell-based or functional assay
Sequence (P35968 20-1356): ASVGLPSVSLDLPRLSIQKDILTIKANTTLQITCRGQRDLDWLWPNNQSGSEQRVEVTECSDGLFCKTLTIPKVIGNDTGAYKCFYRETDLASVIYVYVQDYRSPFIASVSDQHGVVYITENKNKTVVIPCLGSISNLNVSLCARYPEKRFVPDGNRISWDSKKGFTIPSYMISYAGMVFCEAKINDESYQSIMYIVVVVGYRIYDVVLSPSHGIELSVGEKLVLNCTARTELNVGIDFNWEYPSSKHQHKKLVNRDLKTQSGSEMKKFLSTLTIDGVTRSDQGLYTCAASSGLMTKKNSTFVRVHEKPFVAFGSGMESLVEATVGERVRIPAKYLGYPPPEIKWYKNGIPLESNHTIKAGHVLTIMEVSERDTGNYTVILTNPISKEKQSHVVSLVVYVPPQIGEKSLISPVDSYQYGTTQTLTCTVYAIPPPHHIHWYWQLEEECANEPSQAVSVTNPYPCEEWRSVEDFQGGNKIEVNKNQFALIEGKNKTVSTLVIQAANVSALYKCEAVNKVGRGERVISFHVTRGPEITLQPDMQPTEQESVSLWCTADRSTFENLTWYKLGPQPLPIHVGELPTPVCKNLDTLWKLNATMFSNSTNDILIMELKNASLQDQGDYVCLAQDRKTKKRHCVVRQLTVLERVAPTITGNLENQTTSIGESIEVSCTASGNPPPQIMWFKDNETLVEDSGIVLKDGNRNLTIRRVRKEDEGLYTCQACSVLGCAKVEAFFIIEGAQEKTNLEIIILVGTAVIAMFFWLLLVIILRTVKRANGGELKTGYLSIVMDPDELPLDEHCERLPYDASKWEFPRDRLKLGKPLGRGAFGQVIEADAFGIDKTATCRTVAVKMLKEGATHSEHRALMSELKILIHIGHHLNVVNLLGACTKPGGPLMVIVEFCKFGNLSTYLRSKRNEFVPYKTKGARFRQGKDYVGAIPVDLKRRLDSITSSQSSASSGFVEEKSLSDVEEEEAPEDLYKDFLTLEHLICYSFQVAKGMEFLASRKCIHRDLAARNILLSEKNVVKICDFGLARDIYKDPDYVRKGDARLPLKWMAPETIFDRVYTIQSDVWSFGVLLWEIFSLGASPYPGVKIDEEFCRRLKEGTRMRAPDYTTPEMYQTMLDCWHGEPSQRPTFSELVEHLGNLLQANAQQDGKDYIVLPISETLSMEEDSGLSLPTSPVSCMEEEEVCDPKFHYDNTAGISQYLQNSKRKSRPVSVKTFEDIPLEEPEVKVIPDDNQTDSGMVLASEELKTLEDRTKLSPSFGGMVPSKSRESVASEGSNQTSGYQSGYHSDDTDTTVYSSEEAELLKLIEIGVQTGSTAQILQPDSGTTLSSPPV
One number for each entry, in %.

State recorded % Inhibition (N = 2) of VEGF-C-mediated KDR activity, antibody 100 nM for all listed binders.
1. 21H6 (antibody, V domains shown) VH: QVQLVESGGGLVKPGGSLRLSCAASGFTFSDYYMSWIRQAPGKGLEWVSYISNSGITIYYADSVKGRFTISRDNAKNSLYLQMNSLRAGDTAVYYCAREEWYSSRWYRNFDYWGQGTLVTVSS VL: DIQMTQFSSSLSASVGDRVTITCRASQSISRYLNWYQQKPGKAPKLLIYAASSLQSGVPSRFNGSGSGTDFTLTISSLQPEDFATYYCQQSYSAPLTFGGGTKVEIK
2. 33C3 (antibody, V domains shown, Purified fully human monoclonal antibody from XenoMouse hybridoma (IgG2 or IgG4 strains); also called MAb 33C3) VH: QVQLVESGGGLVKPGESLRLSCAASGFTFSDYYMSWIRQAPGKGLEWVSYISHGGSTIYYADSVKGRFTISRDNAKNSLYLQMNSLRVEDTAVYFCARDDFWSGYYFNWFDPWGQGALVTVSS VL: DIQMTQYPLSLSASVGDRVTITCRASQSISSFLNWYHQKPGKAPKLLIYGTSSLQSGVPSRFSGSGSGTDFTLTISSLQPEDFATYYCQQTYSIPLTFGGGTNVEIK
3. 31E11 (antibody, V domains shown) VH: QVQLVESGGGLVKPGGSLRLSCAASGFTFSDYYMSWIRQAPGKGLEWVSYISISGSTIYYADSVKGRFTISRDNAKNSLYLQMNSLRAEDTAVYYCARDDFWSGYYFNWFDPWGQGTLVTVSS VL: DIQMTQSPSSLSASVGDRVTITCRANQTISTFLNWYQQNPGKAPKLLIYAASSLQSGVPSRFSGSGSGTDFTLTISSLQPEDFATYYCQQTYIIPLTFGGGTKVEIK

1: 95; 2: 86; 3: 84
